Cited source: ChEMBL document CHEMBL4477201

test: Drug uptake in diet-induced obese C57Bl/6 mouse liver at 1 mg/kg, po qd for 4 weeks measured 6 hrs post last dose
Type: ADME, organism-based
experimentalSetup: read-out: Drug uptake
measuredParameter: concentration at 6 h (ng/g)

1 = CCCCCCC(=O)c1cc(-c2ccc(CC(=O)O)cc2)c2nccn2c1
2 = CCCCCCC(=O)N1CCc2c(c(-c3ccc(C(C)(C)C(=O)O)cc3)nn2C)C1
// returns 1 or 2 , whichever has the lower concentration at 6 h Respond with the label that goes with your answer. 1

###

test: Drug uptake in diet-induced obese C57Bl/6 mouse serum at 10 mg/kg, po qd for 4 weeks measured 6 hrs post last dose
Format: ADME, organism-based
experimentalSetup: read-out: Drug uptake
measuredParameter: concentration at 6 h (ng/mL)

I = CCCCCCC(=O)N1CCc2c(c(-c3ccc(C(C)(C)C(=O)O)cc3)nn2C)C1
II = CCCCCCC(=O)c1cc(-c2ccc(CC(=O)O)cc2)c2nccn2c1
// returns I or II , whichever has the lower concentration at 6 h Respond with the label that goes with your answer. II
(II: 341 ng/mL, I: 855 ng/mL)

###

test: Drug uptake in diet-induced obese C57Bl/6 mouse liver at 10 mg/kg, po qd for 4 weeks measured 6 hrs post last dose
Assay type: ADME, organism-based
experimentalSetup: read-out: Drug uptake
measuredParameter: concentration at 6 h (ng/g)

A = CCCCCCC(=O)c1cc(-c2ccc(CC(=O)O)cc2)c2nccn2c1
B = CCCCCCC(=O)N1CCc2c(c(-c3ccc(C(C)(C)C(=O)O)cc3)nn2C)C1
// returns A or B , whichever has the lower concentration at 6 h Respond with the label that goes with your answer. A
(A: 2850 ng/g, B: 130000 ng/g)

###

test: Ratio of drug uptake in diet-induced obese C57Bl/6 mouse liver to serum at 1 mg/kg, po qd for 4 weeks measured 6 hrs post last dose
Type: ADME, organism-based
measuredParameter: Kp at 6 h

P = CCCCCCC(=O)N1CCc2c(c(-c3ccc(C(C)(C)C(=O)O)cc3)nn2C)C1
Q = CCCCCCC(=O)c1cc(-c2ccc(CC(=O)O)cc2)c2nccn2c1
// returns P or Q , whichever has the lower Kp at 6 h Respond with the label that goes with your answer. Q
(Q: 5, P: 434)

###

test: Dissociation constant, pKa of the compound
Format: physicochemical
measuredParameter: pKa

get_value(item= CCCCCCC(=O)N1CCc2c(c(-c3ccc(C(C)(C)C(=O)O)cc3)nn2C)C1 , readout=pKa) returns 4.19

get_value(item= CCCCCCC(=O)c1cc(-c2ccc(CC(=O)O)cc2)c2nccn2c1 , readout=pKa) returns 4.73

###

test: Ratio of drug uptake in diet-induced obese C57Bl/6 mouse liver to serum at 10 mg/kg, po qd for 4 weeks measured 6 hrs post last dose
Format: ADME, organism-based
measuredParameter: Kp at 6 h

I = CCCCCCC(=O)N1CCc2c(c(-c3ccc(C(C)(C)C(=O)O)cc3)nn2C)C1
II = CCCCCCC(=O)c1cc(-c2ccc(CC(=O)O)cc2)c2nccn2c1
// returns I or II , whichever has the lower Kp at 6 h Respond with the label that goes with your answer. II
(II: 8, I: 152)

###

test: Drug uptake in diet-induced obese C57Bl/6 mouse serum at 0.1 mg/kg, po qd for 4 weeks measured 6 hrs post last dose
Format: ADME, organism-based
experimentalSetup: read-out: Drug uptake
measuredParameter: concentration at 6 h (ng/mL)
Your answer should be a plain number; it is taken to be in ng/mL.

get_value(item= CCCCCCC(=O)N1CCc2c(c(-c3ccc(C(C)(C)C(=O)O)cc3)nn2C)C1 , readout=concentration at 6 h) returns 5
